Ref: patent US20260200897A1

The following molecules are shown together with reported pIC50 values.
# target_under_test: CDK2/Cyclin E1 (Homo sapiens)
# test_name: CDK2/Cyclin E1 TR-FRET biochemical assay, 1 mM ATP
# stated_conditions: 0.15 μM Rb (Ser780)-biotin substrate, 90 min reaction, Table 2
pIC50: −log10 of the molar value.

# molecule, pIC50
records = [
    ("CC(C)(C)c1cccc(C2CCC(c3cc(Nc4ccc5c(c4F)CNS5(=O)=O)n[nH]3)C2)c1 (stereo not shown)", "< 5.00"),
    ("CC(C)(C)c1ccc(C2CCC(c3cc(Nc4cc5c(cc4F)S(=O)(=O)NC5)n[nH]3)C2)nc1 (stereo not shown)", "< 5.00"),
    ("CC(C)(C)c1ccnnc1O[C@H]1CC[C@H](c2cc(Nc3ccc4c(c3F)CNS4(=O)=O)n[nH]2)C1 (relative stereo)", "< 5.00"),
    ("CC(C)(C)c1cccc(C2=CC(c3cc(Nc4ccc5c(c4F)CS(=O)(=O)N5)n[nH]3)CC2)n1 (stereo not shown)", "< 5.00"),
]
